meta.source: ChEMBL document CHEMBL2429758

Task for the reader: assign each of the following molecules its reported fold change (FC).
- Tgt: Nuclear factor erythroid 2-related factor 2 (Homo sapiens)
- Protocol Text: Induction of Nrf2-mediated ARE activity in human HepG2-ARE-C8 cells at 0.1 uM after 12 hrs by luciferase reporter gene assay relative to control
- Assay type: cell-based
Give bare numbers.

Check out these entries, answers already filled in.
| Molecule | fold change (FC) |
| --- | --- |
| COc1ccc2c(c1)C1CN/C(=C\C(=O)c3cccc(F)c3)C(=O)N1CC2 (configuration not stated) | 3.93 |
| COc1cc2c(cc1OC)C1CN/C(=C\C(=O)c3cccc(Cl)c3)C(=O)N1CC2 (configuration not stated) | 1.47 |
| O=C(/C=C1\NCC2c3ccccc3CCN2C1=O)c1ccccc1[N+](=O)[O-] (configuration not stated) | 1.29 |
| COc1cccc2c1CCN1C(=O)/C(=C/C(=O)c3ccccc3F)NCC21 (configuration not stated) | 2.83 |
| O=C(/C=C1\NCC2c3ccccc3CCN2C1=O)c1ccc(F)c(F)c1 (configuration not stated) | 2.25 |

Provide each entry's fold change (FC) from the list below.
1. COc1ccc2c(c1)C1CN/C(=C\C(=O)c3ccccc3)C(=O)N1CC2 (configuration not stated)
2. Cc1ccc(C(=O)/C=C2\NCC3c4ccccc4CCN3C2=O)cc1 (configuration not stated)

result:
1. 1.93
2. 3.3

Please go through the list and note fold change (FC) for each molecule.
1. O=C(/C=C1\NCC2c3ccccc3CCN2C1=O)c1ccc(-c2ccccc2)cc1 (configuration not stated)
2. O=C(/C=C1\NCC2c3ccccc3CCN2C1=O)c1ccc(Cl)cc1Cl (configuration not stated)
3. COc1ccccc1C(=O)/C=C1\NCC2c3ccccc3CCN2C1=O (configuration not stated)
4. COc1cccc2c1CCN1C(=O)/C(=C/C(=O)c3cccc(F)c3)NCC21 (configuration not stated)
5. COc1cc2c(cc1OC)C1CN/C(=C\C(=O)c3ccccc3)C(=O)N1CC2 (configuration not stated)
6. COc1ccc2c(c1)C1CN/C(=C\C(=O)c3cccc([N+](=O)[O-])c3)C(=O)N1CC2 (configuration not stated)
7. COc1ccc2c(c1)C1CN/C(=C\C(=O)c3cccc(Cl)c3)C(=O)N1CC2 (configuration not stated)

result:
1.67
1.1
1.68
1.43
0.85
1.75
2.28

Could you tell me fold change (FC) for each of these molecules? They are listed below.
1. O=C(/C=C1\NCC2c3ccccc3CCN2C1=O)c1ccc([N+](=O)[O-])cc1 (configuration not stated)
2. O=C(/C=C1\NCC2c3ccccc3CCN2C1=O)c1cccc(Cl)c1 (configuration not stated)
3. COc1cccc(C(=O)/C=C2\NCC3c4cc(OC)c(OC)cc4CCN3C2=O)c1 (configuration not stated)

result:
1. 2.34
2. 3.77
3. 1.18

---

Provide the recorded fold change (FC) for the entries that follow.
- Tgt: Nuclear factor erythroid 2-related factor 2 (Homo sapiens) (UniProt Q16236)
- Sequence (Q16236 whole entry): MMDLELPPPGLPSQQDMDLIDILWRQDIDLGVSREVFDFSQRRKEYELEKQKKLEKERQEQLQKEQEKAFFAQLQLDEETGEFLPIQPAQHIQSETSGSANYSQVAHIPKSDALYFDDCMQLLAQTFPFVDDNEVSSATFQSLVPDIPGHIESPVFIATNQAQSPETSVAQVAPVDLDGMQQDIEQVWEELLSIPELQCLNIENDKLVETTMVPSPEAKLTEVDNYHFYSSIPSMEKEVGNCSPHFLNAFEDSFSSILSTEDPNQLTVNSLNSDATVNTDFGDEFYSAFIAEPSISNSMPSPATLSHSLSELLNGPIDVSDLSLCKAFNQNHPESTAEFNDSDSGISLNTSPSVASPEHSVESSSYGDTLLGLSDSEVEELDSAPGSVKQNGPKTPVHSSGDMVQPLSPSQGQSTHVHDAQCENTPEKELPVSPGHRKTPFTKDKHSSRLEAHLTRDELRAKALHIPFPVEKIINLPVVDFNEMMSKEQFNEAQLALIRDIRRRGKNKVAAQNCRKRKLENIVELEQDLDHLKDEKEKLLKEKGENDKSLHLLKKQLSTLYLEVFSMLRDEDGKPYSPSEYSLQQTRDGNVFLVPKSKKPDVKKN
- Protocol Text: Induction of Nrf2-mediated ARE activity in human HepG2-ARE-C8 cells at 0.01 uM after 12 hrs by luciferase reporter gene assay relative to control
- Assay type: cell-based
One number for each entry.

| Compound | fold change (FC) |
| --- | --- |
| O=C(/C=C1\NCC2c3ccccc3CCN2C1=O)c1ccc(-c2ccccc2)cc1 (stereo unspecified) | 1.62 |
| COc1ccc2c(c1)C1CN/C(=C\C(=O)c3ccc(F)cc3)C(=O)N1CC2 (stereo unspecified) | 1.29 |
| COc1cccc(C(=O)/C=C2\NCC3c4cc(OC)ccc4CCN3C2=O)c1 (stereo unspecified) | 1.08 |
| O=C(/C=C1\NCC2c3ccccc3CCN2C1=O)c1ccccc1[N+](=O)[O-] (stereo unspecified) | 1.28 |
| O=C(/C=C1\NCC2c3ccccc3CCN2C1=O)c1ccc(Cl)cc1 (stereo unspecified) | 1.3 |

query: Please report the recorded fold change (FC) for O=C(/C=C1\NCC2c3ccccc3CCN2C1=O)c1ccc([N+](=O)[O-])cc1 (stereo unspecified) .
result: 1.2
